targetOrSystem: T1, Human KIR3DL3 (human, UniProt Q8N743 26-410)
T1 construct: also called Killer cell immunoglobulin-like receptor 3DL3
T1 sequence (Q8N743 26-410 H321N limits assumed): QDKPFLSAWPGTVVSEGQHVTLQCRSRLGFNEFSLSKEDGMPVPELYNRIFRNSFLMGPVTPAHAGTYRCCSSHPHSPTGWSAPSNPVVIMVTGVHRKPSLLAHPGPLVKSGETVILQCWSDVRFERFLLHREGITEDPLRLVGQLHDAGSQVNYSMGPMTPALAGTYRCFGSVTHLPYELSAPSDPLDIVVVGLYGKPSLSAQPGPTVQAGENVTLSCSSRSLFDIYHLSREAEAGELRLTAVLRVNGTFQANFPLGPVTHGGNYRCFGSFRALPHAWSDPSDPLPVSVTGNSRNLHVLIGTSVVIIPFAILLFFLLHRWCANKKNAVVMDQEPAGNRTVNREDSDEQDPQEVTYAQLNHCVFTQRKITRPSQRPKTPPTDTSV
testDetails: flow cytometry, KIR3DL3-transfected 300.19 cells
observedProperty: Kd (µg/mL)

{"binder": "KIR3DL3 mAb 574.2.2F11.2.7.4 (antibody, IgG2b, V domains shown, Parental mouse hybridoma antibody, IgG2b; only variable domains given; also called AVS-3703) VH: DVQLVESGGGLVQPGGSRKLSCAASGFTFSYFGMHWVRRAPEKGLEWVAFISSDSTTIYYTDTVKGRFTISRDNPKNTLFLQMTSLRSEDTAIYYCARFYDGAMDYWGQGTSVTVST VL: DIVMTQSQKFMSTSVGDRVSITCKASQSVRTAVAWYQQKPGQSPKVLIYLASNRHTGVPDRFTGSGSGTDFTLTISNVQSEDLADYFCLQHWNYPLTFGAGTKLELK", "observedProperty": "Kd", "assayResult": 0.43}
{"binder": "KIR3DL3 mAb 574.2.1C7.D2.6.5 (antibody, IgG1, V domains shown, Mouse hybridoma antibody, IgG1; only variable domains given; also called AVS-3698) VH: QVQLQQSGAELMKPGASVKISCKATGYTFSNYWIEWIKQRPGHGLEWIGEILPGSGSTNYNEKFKGKATFTAATSSNTAYMQLSSLTSEDSAVYYCARRVPDYYGSRYYFDYWGQGTTLTVSS VL: NIVMTQSPKSMSMSVGERVTLSCKASENVGIYVSWYQQKPEQSPKLLIYGASNRYTGVPDRFTGSGSATDFTLTISSVQAEDLADYHCGQSYNYPFTFGSGTKLEIK", "observedProperty": "Kd", "assayResult": 0.77}
{"binder": "KIR3DL3 mAb 574.2.2H1.11.6 (antibody, IgG2b, V domains shown, Mouse hybridoma antibody, IgG2b; only variable domains given; also called AVS-3704) VH: DVQLVESGGGLVQPGGSRKLSCAASGFTFSYFGMHWVRRAPEKGLEWVAFISSDSTTIYYTDTVKGRFTISRDNPKNTLFLQMTSLRSEDTAIYYCARFYDGAMDYWGQGTSVTVST VL: DIVMTQSQKFMSTSVGDRVSITCKASQSVRTAVAWYQQKPGQSPKVLIYLASNRHTGVPDRFTGSGSGTDFTLTISNVQSEDLADYFCLQHWNYPLTFGAGTKLELK", "observedProperty": "Kd", "assayResult": 0.42}
